Target: T1, EsCas13d, nuclease-dead (Eubacterium siraeum, UniProt B0MS50, R295A;H300A;R849A;H854A)
T1 sequence: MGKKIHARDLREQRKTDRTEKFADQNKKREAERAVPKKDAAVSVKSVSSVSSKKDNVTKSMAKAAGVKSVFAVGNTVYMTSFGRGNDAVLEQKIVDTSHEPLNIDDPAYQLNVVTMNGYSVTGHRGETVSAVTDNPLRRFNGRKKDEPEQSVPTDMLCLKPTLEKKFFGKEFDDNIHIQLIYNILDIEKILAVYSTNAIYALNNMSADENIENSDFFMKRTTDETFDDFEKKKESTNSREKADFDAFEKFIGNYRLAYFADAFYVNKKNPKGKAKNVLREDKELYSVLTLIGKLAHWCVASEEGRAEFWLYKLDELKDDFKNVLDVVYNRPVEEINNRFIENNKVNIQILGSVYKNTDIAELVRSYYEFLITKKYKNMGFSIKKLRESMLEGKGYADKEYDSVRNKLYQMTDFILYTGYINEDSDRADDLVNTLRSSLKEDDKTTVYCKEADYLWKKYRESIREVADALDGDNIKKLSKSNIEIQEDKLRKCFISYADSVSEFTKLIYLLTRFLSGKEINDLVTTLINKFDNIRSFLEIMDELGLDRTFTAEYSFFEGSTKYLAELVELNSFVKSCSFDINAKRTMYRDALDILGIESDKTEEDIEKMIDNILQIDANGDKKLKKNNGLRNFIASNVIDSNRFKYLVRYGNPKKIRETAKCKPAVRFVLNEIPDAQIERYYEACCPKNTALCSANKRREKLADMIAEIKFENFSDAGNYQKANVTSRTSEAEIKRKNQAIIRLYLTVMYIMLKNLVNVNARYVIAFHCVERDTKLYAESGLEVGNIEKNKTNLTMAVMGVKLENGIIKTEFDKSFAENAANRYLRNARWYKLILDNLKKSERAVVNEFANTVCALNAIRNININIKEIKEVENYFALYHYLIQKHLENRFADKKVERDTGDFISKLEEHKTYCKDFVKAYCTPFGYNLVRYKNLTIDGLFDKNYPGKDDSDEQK
Experiment: crRNA (strand 1, pre-loaded); Mg2+; 40 mM Tris-HCl pH 7.5, 150 mM NaCl, 6 mM MgCl2, 1 mM DTT, 0.1% Tween-20, 0.2 mg/ml BSA; 25 C; 10 min per concentration, then washed
Conditions: tags: His6-TwinStrep-SUMO cleaved; N-terminal SNAP kept (SNAP-Surface 488); label: 3' end held by stalled T7 RNA polymerase
Reported Metric: Kd (nM)
// units = nM; emit number, no label

I'd like to know its Kd. The binder in question is target 2 MT 5'PFS AGG 3'PFS CAA (mixed) RNA 1: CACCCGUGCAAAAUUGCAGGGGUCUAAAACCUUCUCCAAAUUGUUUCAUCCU RNA 2: GGGAAUGGAUCCACAUCUACGAAUUCAGGAGGAUGAAACAAUUUGGAGAAGCAAAGAUCGGAAGAGCACACGU
4.1

# query: Kd of entry target 1 U3A,C6A (mixed) RNA 1: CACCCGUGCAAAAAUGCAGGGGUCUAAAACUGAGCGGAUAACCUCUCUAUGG RNA 2: GGGAAUGGAUCCACAUCUACGAAUUCGUACCAUAGAGAGGUUAUCAGCACACCGAGAUCGGAAGAGCACACGU
5.02

Tell me the measured Kd of target 1 C6G,A16C (mixed) RNA 1: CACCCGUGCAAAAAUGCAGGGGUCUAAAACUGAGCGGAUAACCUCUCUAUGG RNA 2: GGGAAUGGAUCCACAUCUACGAAUUCGUACCAUAGCGAGGUUAUCGGCUCACCGAGAUCGGAAGAGCACACGU , please.
42.2
